The origin of these recorded values is patent US12685735B2.

# Measured target: BRG-1 (Homo sapiens)
# Sequence (P51532 whole entry): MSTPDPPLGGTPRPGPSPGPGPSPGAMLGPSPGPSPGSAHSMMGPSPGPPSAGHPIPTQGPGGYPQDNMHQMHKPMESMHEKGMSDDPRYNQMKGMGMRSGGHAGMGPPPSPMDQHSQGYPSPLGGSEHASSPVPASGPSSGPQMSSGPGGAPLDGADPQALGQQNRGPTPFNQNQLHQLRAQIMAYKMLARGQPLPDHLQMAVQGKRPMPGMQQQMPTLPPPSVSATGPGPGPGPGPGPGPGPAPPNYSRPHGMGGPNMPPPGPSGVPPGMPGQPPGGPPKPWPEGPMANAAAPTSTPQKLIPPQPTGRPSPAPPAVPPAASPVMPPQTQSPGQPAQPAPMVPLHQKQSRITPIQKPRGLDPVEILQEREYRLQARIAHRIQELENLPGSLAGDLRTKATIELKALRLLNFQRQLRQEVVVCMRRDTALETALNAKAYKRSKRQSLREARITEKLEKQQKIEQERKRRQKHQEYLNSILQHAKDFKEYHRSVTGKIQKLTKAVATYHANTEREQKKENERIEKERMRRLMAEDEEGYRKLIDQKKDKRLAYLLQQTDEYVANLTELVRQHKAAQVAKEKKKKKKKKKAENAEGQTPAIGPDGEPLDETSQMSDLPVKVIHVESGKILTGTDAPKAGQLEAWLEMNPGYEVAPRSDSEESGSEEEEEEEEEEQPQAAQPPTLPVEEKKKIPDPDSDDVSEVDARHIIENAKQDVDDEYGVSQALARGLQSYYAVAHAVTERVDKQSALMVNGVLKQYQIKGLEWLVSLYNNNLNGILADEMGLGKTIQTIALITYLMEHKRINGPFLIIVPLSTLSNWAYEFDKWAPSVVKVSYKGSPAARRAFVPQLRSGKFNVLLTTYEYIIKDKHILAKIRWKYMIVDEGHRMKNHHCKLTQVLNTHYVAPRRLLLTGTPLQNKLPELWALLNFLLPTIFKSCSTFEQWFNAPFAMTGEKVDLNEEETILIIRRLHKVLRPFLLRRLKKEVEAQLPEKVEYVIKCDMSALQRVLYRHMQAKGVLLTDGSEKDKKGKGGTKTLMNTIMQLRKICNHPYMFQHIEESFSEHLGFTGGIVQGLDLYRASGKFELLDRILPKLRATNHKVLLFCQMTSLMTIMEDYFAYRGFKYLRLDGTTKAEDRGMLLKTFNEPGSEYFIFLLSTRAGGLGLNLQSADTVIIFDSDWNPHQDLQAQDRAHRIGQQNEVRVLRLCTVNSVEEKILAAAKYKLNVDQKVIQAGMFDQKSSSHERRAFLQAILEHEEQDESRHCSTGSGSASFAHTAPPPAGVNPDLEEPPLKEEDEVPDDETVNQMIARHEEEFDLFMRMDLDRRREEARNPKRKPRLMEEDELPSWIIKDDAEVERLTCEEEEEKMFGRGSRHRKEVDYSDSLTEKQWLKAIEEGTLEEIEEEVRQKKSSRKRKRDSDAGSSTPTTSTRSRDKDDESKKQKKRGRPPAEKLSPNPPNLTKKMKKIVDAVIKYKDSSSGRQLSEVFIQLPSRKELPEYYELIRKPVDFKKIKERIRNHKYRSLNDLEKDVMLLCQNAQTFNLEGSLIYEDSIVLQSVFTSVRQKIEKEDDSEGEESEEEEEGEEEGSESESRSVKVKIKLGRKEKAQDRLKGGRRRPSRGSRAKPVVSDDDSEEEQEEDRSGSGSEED
# Assay procedure: ATPase catalytic activity assay of BRG-1 (ADP-Glo)
# Assay type: biochemical
# Condition notes: ATPase catalytic activity, ADP-Glo; read-out: BRG1 IC50 (μM)*
Quantity kind: IC50

// solved cases for IC50 follow
Molecule | Measured target | IC50
C[C@]1(CO)CCc2c(C(=O)NCC(=O)Nc3nc(-c4cccc(-c5ccncc5)c4)cs3)cccc21 [Compound 226] | BRG-1 (Homo sapiens) | 1 to 5 µM
Cn1ncc2ccc(-c3csc(NC(=O)CNC(=O)c4ccc5c(c4)[C@@](C)(CO)CC5)n3)cc21 [Compound 261] | BRG-1 (Homo sapiens) | > 5 µM
COc1cc(-c2csc(NC(=O)CNC(=O)c3ccc4c(c3)[C@](C)(C#N)COC4)n2)ccn1 [Compound 400] | BRG-1 (Homo sapiens) | 0.1 to 1 µM
Cc1cc(-c2cccc(-c3csc(NC(=O)CNC(=O)c4ccc5c(c4)[C@@](C)(C#N)CC5)n3)n2)ncn1 [Compound 266] | BRG-1 (Homo sapiens) | > 5 µM
C[C@@H]1CN(c2cccc(-c3csc(NC(=O)CNC(=O)c4cccc([C@@H]5COC[C@H]5O)c4)n3)c2)C[C@H](C)O1 [Compound 157] | BRG-1 (Homo sapiens) | > 5 µM
C[C@@H]1CN(c2cccc(-c3csc(NC(=O)CNC(=O)c4ccc5c(c4)CCOC5)n3)n2)C[C@H](C)O1 [Compound 366] | BRG-1 (Homo sapiens) | 0.1 to 1 µM

[Q] For the record C[C@@H]1CN(c2cccc(-c3csc(NC(=O)CNC(=O)c4ccc5c(c4)[C@@H](CO)CC5)n3)n2)C[C@H](C)O1 [Compound 161] , what value of IC50 is listed for BRG-1 (Homo sapiens)?
[A] 0.1 to 1 µM
